Tested on: DLD-1
Assay: Inhibition of 20S proteasome in human DLD1 cells transfected with 4Ub-Luc gene assessed as bioluminescence induction factor at 0.5 uM after 8 hrs by luciferase reporter gene assay relative to epoxomicin
Assay type: cell-based
Exam item: assign class 1 to entries whose fold change (FC) is below 2 and class 0 to entries at or above 2. Note that a value of exactly 2 receives class 0.

C=CCOC[C@H](C)C(=C)C(=O)[C@H](OC(C)=O)[C@@H](C)[C@H]1[C@@H](OC(C)=O)C[C@@]2(C)[C@@H]3CC[C@H]4[C@H](C)C(=O)C=C[C@@]45C[C@@]35CC[C@]12C; class 1

(Q) Threshold test, fold change (FC) < 2: `C=C(C(=O)[C@H](OC(C)=O)[C@@H](C)[C@H]1[C@@H](OC(C)=O)C[C@@]2(C)[C@@H]3CC[C@H]4[C@H](C)C(=O)C=C[C@@]45C[C@@]35CC[C@]12C)[C@@H](C)COC(C)=O`
(A) class 1

(Q) Threshold test, fold change (FC) < 2: `C=C(C(=O)[C@H](OC(C)=O)[C@@H](C)[C@H]1[C@@H](OC(C)=O)C[C@@]2(C)[C@@H]3CC[C@H]4[C@H](C)C(=O)C=C[C@@]45C[C@@]35CC[C@]12C)[C@@H](C)CO`
(A) class 0

(Q) Threshold test, fold change (FC) < 2: `C=C(C(=O)[C@H](OC(C)=O)[C@@H](C)[C@H]1[C@@H](OC(C)=O)C[C@@]2(C)[C@@H]3CC[C@H]4[C@H](C)C(=O)C=C[C@@]45C[C@@]35CC[C@]12C)[C@@H](C)COP(=O)(OCC)OCC`
(A) class 0

(Q) Threshold test, fold change (FC) < 2: `C=C(C(=O)[C@H](OC(C)=O)[C@@H](C)[C@H]1[C@@H](OC(C)=O)C[C@@]2(C)[C@@H]3CC[C@H]4[C@H](C)C(=O)C=C[C@@]45C[C@@]35CC[C@]12C)[C@@H](C)COC(=O)CCN(CC)CC`
(A) class 1

(Q) Threshold test, fold change (FC) < 2: `C=C(C(=O)[C@H](O)[C@@H](C)[C@H]1[C@@H](OC(C)=O)C[C@@]2(C)[C@@H]3CC[C@H]4[C@H](C)C(=O)C=C[C@@]45C[C@@]35CC[C@]12C)[C@@H](C)COC(=O)Nc1ccc(N(C)C)cc1`
(A) class 0

---

Tested on: DLD-1
Assay: Inhibition of 20S proteasome in human DLD1 cells transfected with 4Ub-Luc gene assessed as bioluminescence induction factor at 0.5 uM after 8 hrs by luciferase reporter gene assay relative to epoxomicin
Assay type: cell-based
Outcome measure: fold change (FC)
The response must contain the number and no unit.

C=C(C(=O)[C@H](OC(C)=O)[C@@H](C)[C@H]1[C@@H](OC(C)=O)C[C@@]2(C)[C@@H]3CC[C@H]4[C@H](C)C(=O)C=C[C@@]45C[C@@]35CC[C@]12C)[C@@H](C)COC(=O)Nc1ccc(N(C)C)cc1; 19

(Q) Recorded fold change (FC) for `C=C(C(=O)[C@H](OC(=O)CCl)[C@@H](C)[C@H]1[C@@H](OC(C)=O)C[C@@]2(C)[C@@H]3CC[C@H]4[C@H](C)C(=O)C=C[C@@]45C[C@@]35CC[C@]12C)[C@@H](C)COC(C)=O` with DLD-1, please?
(A) 23

Recorded values, source ChEMBL document CHEMBL1938254.
